- System: S pyogenes C203
- Experiment: Antibacterial assay (Test A), standard microtitration MIC, Gram positive
- Format: cell-based
- Test Settings: Gram Positive Bacteria; strain C203; read-out: Minimum Inhibitory Concentrations, S pyogenes C203

{"Compound": "CC(=O)NCC1CN(c2ccc3c(c2)CCCCC3=O)C(=O)O1 (centres unmarked)", "Qualifier Symbol": ">", "MIC [µg/mL]": 64}
{"Compound": "CC(=O)NCC1CN(c2ccc3c(c2)CCCC(=O)C3)C(=O)O1 (centres unmarked)", "Qualifier Symbol": "=", "MIC [µg/mL]": 2}
{"Compound": "CC(=O)NCC1CN(c2ccc3c(c2)C=CCCC3)C(=O)O1 (centres unmarked)", "Qualifier Symbol": "=", "MIC [µg/mL]": 2}
{"Compound": "CC(=O)NCC1CN(c2ccc3c(c2)CCC(=O)CC3)C(=O)O1 (centres unmarked)", "Qualifier Symbol": "=", "MIC [µg/mL]": 4}
{"Compound": "CC(=O)NC[C@H]1CN(c2ccc3c(c2)CCCC(Cc2ccsc2)C3=O)C(=O)O1 (some centres unmarked)", "Qualifier Symbol": "=", "MIC [µg/mL]": 0.25}
